# collection of IC50 values tested on c-Met kinase (Homo sapiens)
# Sequence (P08581 25-1390): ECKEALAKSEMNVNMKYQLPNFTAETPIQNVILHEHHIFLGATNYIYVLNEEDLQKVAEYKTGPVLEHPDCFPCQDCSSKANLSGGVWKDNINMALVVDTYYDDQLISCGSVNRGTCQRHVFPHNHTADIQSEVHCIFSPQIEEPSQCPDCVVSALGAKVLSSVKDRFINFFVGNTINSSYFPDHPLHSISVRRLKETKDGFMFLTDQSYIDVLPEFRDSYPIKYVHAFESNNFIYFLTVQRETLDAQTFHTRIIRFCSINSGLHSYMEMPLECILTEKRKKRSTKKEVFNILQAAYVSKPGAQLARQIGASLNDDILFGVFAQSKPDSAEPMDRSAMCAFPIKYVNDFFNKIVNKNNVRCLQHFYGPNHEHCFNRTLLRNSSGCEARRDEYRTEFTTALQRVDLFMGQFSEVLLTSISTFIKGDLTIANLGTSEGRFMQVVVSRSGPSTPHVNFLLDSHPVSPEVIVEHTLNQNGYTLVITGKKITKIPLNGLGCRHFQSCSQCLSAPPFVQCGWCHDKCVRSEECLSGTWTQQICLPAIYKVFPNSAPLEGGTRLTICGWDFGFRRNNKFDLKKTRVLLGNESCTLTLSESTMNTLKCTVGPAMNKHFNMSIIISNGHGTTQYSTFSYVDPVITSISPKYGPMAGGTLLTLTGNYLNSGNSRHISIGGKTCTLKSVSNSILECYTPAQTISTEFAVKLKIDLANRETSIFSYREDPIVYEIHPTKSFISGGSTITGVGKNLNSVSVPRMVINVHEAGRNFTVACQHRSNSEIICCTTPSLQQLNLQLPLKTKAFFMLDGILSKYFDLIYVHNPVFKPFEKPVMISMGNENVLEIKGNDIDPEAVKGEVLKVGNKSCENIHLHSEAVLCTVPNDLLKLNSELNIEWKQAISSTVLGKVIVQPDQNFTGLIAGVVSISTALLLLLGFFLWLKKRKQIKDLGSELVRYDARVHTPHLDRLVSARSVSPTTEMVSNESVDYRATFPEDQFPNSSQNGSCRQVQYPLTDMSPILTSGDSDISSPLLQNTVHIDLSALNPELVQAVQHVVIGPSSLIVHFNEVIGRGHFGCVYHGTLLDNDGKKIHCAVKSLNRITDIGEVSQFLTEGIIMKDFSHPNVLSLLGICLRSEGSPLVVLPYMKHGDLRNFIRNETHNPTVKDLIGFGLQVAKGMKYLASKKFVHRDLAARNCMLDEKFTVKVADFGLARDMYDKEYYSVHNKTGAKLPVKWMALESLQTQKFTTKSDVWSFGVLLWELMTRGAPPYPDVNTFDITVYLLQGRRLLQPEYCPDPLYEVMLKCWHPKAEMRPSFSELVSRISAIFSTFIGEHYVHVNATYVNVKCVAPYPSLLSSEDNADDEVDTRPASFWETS

-- ask What IC50 appears in the records for this compound with c-Met kinase (Homo sapiens)? COc1cc2c(Oc3ccc(NC(=O)c4cc5ncsc5n(-c5ccc(F)cc5)c4=O)cc3F)ccnc2cc1OCCCN1CCOCC1 [Embodiment 5]
-- reply < 10 nM

---

- Tested on: Human gastric cancer cell SNU-5
- testMethodNotes: Inhibition of in vitro proliferation of human gastric cancer cell SNU-5 (SRB)
- Format: cell-based
- conditionDetails: Homo sapiens, SNU-5 cells, 72-hr agent treatment, read-out: Strength of activity (inhibition on SNU-5, IC50)
Reported IC50 values for a set of molecules

Below are worked cases with known answers.
CN(C)c1nc2cc(C(=O)Nc3ccc(Oc4ccnc5[nH]ccc45)c(F)c3)c(=O)n(-c3ccc(F)cc3)c2s1 [Embodiment 26] | 100 to 500 nM
COc1ccc2c(Oc3ccc(NC(=O)c4cc5nc(N(C)C)sc5n(-c5ccc(F)cc5)c4=O)cc3F)ccnc2c1 [Embodiment 25] | 500 to 5000 nM
Nc1cc(Oc2ccc(NC(=O)c3cc4ncsc4n(-c4ccc(F)cc4)c3=O)cc2F)ccn1 [Embodiment 1] | < 100 nM

// moving on: another record for IC50
-- ask Reported IC50 for Cn1cnc2cc(C(=O)Nc3ccc(Oc4ccnc5[nH]ccc45)c(F)c3)c(=O)n(-c3ccc(F)cc3)c21 [Embodiment 36] : what is it?
-- reply 500 to 5000 nM

---

- Test system: Human gastric cancer cell SNU-5
- testMethodNotes: Inhibition of in vitro proliferation of human gastric cancer cell SNU-5 (SRB)
- Format: cell-based
- conditionDetails: Homo sapiens, SNU-5 cells, 72-hr agent treatment, read-out: Strength of activity (inhibition on SNU-5, IC50)
Below, each entry is listed with its recorded IC50.

Cn1ncc2cc(C(=O)Nc3ccc(Oc4ccnc(N)c4Cl)c(F)c3)c(=O)n(-c3ccc(F)cc3)c21 [Embodiment 29] | < 100 nM

-- ask Entry under review: COc1ccc2c(Oc3ccc(NC(=O)c4cc5ncsc5n(-c5ccccc5CCO)c4=O)cc3F)ccnc2c1 [Embodiment 20] . Reported IC50?
-- reply < 100 nM

-- ask Look up IC50: CN1CCN(C(=O)Nc2nccc(Oc3ccc(NC(=O)c4cc5ncsc5n(-c5ccc(F)cc5)c4=O)cc3F)c2Cl)CC1 [Embodiment 16]
-- reply 100 to 500 nM

-- ask I have this compound here, CCn1cnc(-c2cc3nccc(Oc4ccc(NC(=O)c5cc6ncsc6n(-c6ccc(F)cc6)c5=O)cc4F)c3s2)c1 [Embodiment 7] , and I need its recorded IC50.
-- reply 100 to 500 nM

-- ask Data request, read-out IC50, for O=C(Nc1ccc(Oc2ccnc3[nH]ccc23)c(F)c1)c1cc2ncsc2n(-c2ccccc2CCO)c1=O [Embodiment 21]
-- reply < 100 nM

-- ask GET /values?readout=IC50&item= Cc1n[nH]c2nccc(Oc3ccc(NC(=O)c4cc5ncsc5n(-c5ccc(F)cc5)c4=O)cc3F)c12 [Embodiment 8]
-- reply 500 to 5000 nM

---

Entries with their measured IC50, system c-Met kinase (Homo sapiens, UniProt P08581):

CN(C)C/C=C/C(=O)Nc1cc(Oc2ccc(NC(=O)c3cc4ncsc4n(-c4ccc(F)cc4)c3=O)cc2F)ccn1 | 10 to 100 nM
COc1ccc2c(Oc3ccc(NC(=O)c4cc5cnn(C)c5n(-c5ccc(F)cc5)c4=O)cc3F)ccnc2c1 | 100 to 1000 nM
O=C(Nc1ccc(Oc2ccnc(NC(=O)N3CCC(O)CC3)c2)c(F)c1)c1cc2ncsc2n(-c2ccc(F)cc2)c1=O | 10 to 100 nM
O=C(Nc1ccc(Oc2ccnc3[nH]ccc23)c(F)c1)c1cc2ncsc2n(-c2ccccc2CCO)c1=O | 10 to 100 nM
Cn1cnc2cc(C(=O)Nc3ccc(Oc4ccnc(N)c4)c(F)c3)c(=O)n(-c3ccc(F)cc3)c21 | 100 to 1000 nM

Turning now to a further molecule:
-- ask // lookup IC50 for `CCOc1c(C(=O)Nc2ccc(Oc3ccnc4[nH]ccc34)c(F)c2)c(=O)n(-c2ccc(F)cc2)c2scnc12`
-- reply 100 to 1000 nM

Reference source for all entries: patent US9562060B2
